- Tested on: HL-60
- test-summary: NCI tumour cell line growth inhibition, 48 h
Calls of active or inactive are those of the source. Rule as the data show it: active = GI50 up to about 1.1 µM and inactive = higher.
Each entry below carries its reported GI50.

Observe how each entry below is paired with its result.
INSERT INTO results (compound, observed_measurement) VALUES
  ('COc1ccc(-n2c(=O)c3nc[nH]c3n(-c3ccc(OC)cc3)c2=S)cc1', '> 100 µM (inactive)'),
  ('C=C1C(C)C2C(Cc3ccccc3)NC(=O)C23C(OC(C)=O)C=CC(C)(O)C(=O)C(C)C/C=C/C3C1O (stereo not drawn)', '4.57 µM (inactive)'),
  ('CC1=NN=C(N)NC1=CC(Sc1ccc(Cl)cc1)c1c(O)ccc2ccccc12 (stereo not drawn)', '> 10 µM (inactive)'),
  ('COC(=O)/C(=N\NC(N)=O)C(C(=O)C(=O)Nc1ccccc1C(=O)OC)c1nc2ccc(C(=O)c3ccccc3)cc2nc1O (stereo not drawn)', '> 100 µM (inactive)'),
  ('c1ccc2c(c1)N=c1ccccc1=P21c2ccccc2Nc2ccccc21', '0.186 µM (active)'),
  ('Brc1ccc2c(-c3nc(-c4c[nH]c5ccccc45)cs3)c[nH]c2c1', '63 µM (inactive)'),
  ('C=C(C)[C@@H]1CC[C@@H]2C(=CC[C@]3(C)C([C@H](C)CC/C=C(/C)C(=O)O)CC[C@@]23C)[C@@]1(C)CCC(=O)O (stereo partly drawn)', '26.8 µM (inactive)');

Please report GI50 for the following compound: C=CC[C@]12C=C(OC)[C@@H](O)[C@](OC)(C(c3cc(OC)c4c(c3)OCO4)[C@H]1C)[C@H]2OC(C)=O (stereo partly drawn) 91 µM (inactive)
